Origin of measurements: patent US20240251792A1

System: AMARE
Assay: Pre-emergence biological efficacy (Table 3)
Assay type: in vivo
Conditions: Amaranthus retroflexus, 312 h, 1000 g/ha, after 13 days, read-out: evaluation (100=total damage to plant; 0=no damage to plant)
Mark TRUE only for pest or weed control at 1000 g/ha values smaller than 50%; exact matches and larger values are FALSE.

[[record]]
mol = "CSc1c(C(F)(F)C(=O)O)ccc(Br)c1Cl"
measured_target = "AMARE"
assigned_category = "TRUE"

[[record]]
mol = "N#Cc1c(Cl)cccc1C(F)(F)C(=O)O"
measured_target = "AMARE"
assigned_category = "FALSE"

[[record]]
mol = "COC(=O)c1c(Cl)cccc1C(F)(F)C(=O)O"
measured_target = "AMARE"
assigned_category = "TRUE"

[[record]]
mol = "O=C(O)C(F)(F)c1cccc(OC(F)F)c1Cl"
measured_target = "AMARE"
assigned_category = "FALSE"

[[record]]
mol = "O=C(O)C(F)(F)c1c(Cl)ccc2cccnc12"
measured_target = "AMARE"
assigned_category = "FALSE"

[[record]]
mol = "O=C(O)C(F)(F)c1cc(Cl)cc([N+](=O)[O-])c1Cl"
measured_target = "AMARE"
assigned_category = "TRUE"


----------
Test system: weeds and/or crops
Assay: Post-emergence biological efficacy (Table 4)
Type: in vivo
Conditions: Amaranthus retroflexus, 312 h, AMARE, 1000 g/ha, evaluated after 13 days, read-out: damage to plant AMARE (100=total damage; 0=no damage)
measure_name: pest or weed control at 1000 g/ha (%)

[[record]]
mol = "N#Cc1cccc(C(F)(F)C(=O)O)c1F"
measure_name = "pest or weed control at 1000 g/ha"
scale_unit = "%"
measurement = 80

[[record]]
mol = "O=C(O)C(F)(F)c1cccc(Cl)c1OC(F)F"
measure_name = "pest or weed control at 1000 g/ha"
scale_unit = "%"
measurement = 80

[[record]]
mol = "CSc1c(C(F)(F)C(=O)O)ccc(Br)c1Cl"
measure_name = "pest or weed control at 1000 g/ha"
scale_unit = "%"
measurement = 10

[[record]]
mol = "COc1ccc(C(F)(F)C(=O)O)c([N+](=O)[O-])c1F"
measure_name = "pest or weed control at 1000 g/ha"
scale_unit = "%"
measurement = 80

[[record]]
mol = "O=C(O)C(F)(F)c1cc(Cl)c(Cl)cc1O"
measure_name = "pest or weed control at 1000 g/ha"
scale_unit = "%"
measurement = 10

[[record]]
mol = "COc1cccc(C(F)(F)C(=O)O)c1F"
measure_name = "pest or weed control at 1000 g/ha"
scale_unit = "%"
measurement = 90

[[record]]
mol = "COc1c(F)ccc(F)c1C(F)(F)C(=O)O"
measure_name = "pest or weed control at 1000 g/ha"
scale_unit = "%"
measurement = 60

[[record]]
mol = "O=C(O)C(F)(F)c1cccc(OC(F)F)c1Cl"
measure_name = "pest or weed control at 1000 g/ha"
scale_unit = "%"
measurement = 80

[[record]]
mol = "CSc1cccc(C(F)(F)C(=O)O)c1Cl"
measure_name = "pest or weed control at 1000 g/ha"
scale_unit = "%"
measurement = 70

[[record]]
mol = "COc1ccc(Cl)c(C(F)(F)C(=O)O)c1"
measure_name = "pest or weed control at 1000 g/ha"
scale_unit = "%"
measurement = 60

